Recorded measurements of Kd, one per entry
measurement target: T1, PUF4 RNA-binding domain (Saccharomyces cerevisiae, UniProt P25339 537-888)
T1 sequence: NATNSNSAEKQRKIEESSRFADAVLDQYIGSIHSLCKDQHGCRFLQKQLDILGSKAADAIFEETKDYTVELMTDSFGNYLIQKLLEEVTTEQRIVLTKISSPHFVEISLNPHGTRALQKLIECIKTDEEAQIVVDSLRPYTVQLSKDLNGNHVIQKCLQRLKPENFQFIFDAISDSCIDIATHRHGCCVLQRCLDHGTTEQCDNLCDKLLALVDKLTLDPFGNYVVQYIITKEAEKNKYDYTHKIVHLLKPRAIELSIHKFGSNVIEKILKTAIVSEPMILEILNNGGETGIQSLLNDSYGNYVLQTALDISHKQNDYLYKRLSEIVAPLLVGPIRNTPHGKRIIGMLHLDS
experiment notes: Mg; RNA-MaP; 20 mM Na-HEPES pH 7.4, 30 mM KOAc, 0.75 mM MgCl2, 0.1% Tween-20, 5% glycerol, 0.1 mg/mL BSA, 2 mM DTT; 25 C; 0.0125-409.6 nM protein
protocol conditions: tags: N-His6-TEV cleaved; C-SNAP kept, Cy3B-labelled; label: tethered on chip by stalled RNA polymerase
Please respond with the number in nM and leave the unit unwritten.

binder	experimental value
Ib_S4_P4E.1_K4.1_C4.1_H4.1_[T1C]_A4.1_[A6G]_F4.1_T4.1 (ssRNA) RNA: UUUGACAACUGAUCGUUCUUUCUCGUAUGUUAUUCUUUCUCGAUCAGUUGUCUUU	700

Continue with the next binder.
Q: Would you mind telling me what Kd value was observed for UCUCUUUGUAUUUCCUAUUAUCUCUU (ssRNA) [Ie_S1_P5E.1_K5.1_C5.1_H5.1_A5.1_[+5TTCC]_F5.1_T5.1] ?
Result: 15.9

Data origin: paper PMC9352680
